Assay: Pharmacokinetics and metabolism after iv and po administration
Assay type: in vivo
Conditions: male, C57/BL6, mouse, plasma, iv, 5 mg/kg, 0.25 h after iv 5 mg/kg artemisox 6; read-out: Mean iv circulating concentration
Procedure: The plasma concentration-time profiles of the parent compounds and metabolites after administration iv and po to male C57/BL6 mice are presented in Figure 2, Figure 3 and Figure 4. Artemiside was quantifiable up to 24 h in all mice dosed iv and up to 7 h po (lower limit of quantitation LLOQ = 1.6 ng/mL or 0.004 μM) (Figure 2). […] For both artemiside and artemisox, the metabolite artemisone was quantifiable up to 3 h in both the po and iv groups (Figure 2 and Figure 3). […]
ASSAY READOUT: concentration at 0.25 h (nM)
State just the number; it will be interpreted in nM.

COMPOUND | UNIT NAME | concentration at 0.25 h
C[C@H]1[C@H](N2CCS(=O)(=O)CC2)O[C@@H]2O[C@@]3(C)CC[C@H]4[C@H](C)CC[C@@H]1[C@@]24OO3 [Artemisone 7, Artemisone] | nM | 1400

# input Item under review: C[C@H]1[C@H](N2CC[S+]([O-])CC2)O[C@@H]2O[C@@]3(C)CC[C@H]4[C@H](C)CC[C@@H]1[C@@]24OO3 [Artemisox 6, Artemisox] . Reported concentration at 0.25 h?
# output 2420
